SYSTEM_TESTED: GRK2 (Homo sapiens, UniProt P25098)
Sequence (P25098 whole entry): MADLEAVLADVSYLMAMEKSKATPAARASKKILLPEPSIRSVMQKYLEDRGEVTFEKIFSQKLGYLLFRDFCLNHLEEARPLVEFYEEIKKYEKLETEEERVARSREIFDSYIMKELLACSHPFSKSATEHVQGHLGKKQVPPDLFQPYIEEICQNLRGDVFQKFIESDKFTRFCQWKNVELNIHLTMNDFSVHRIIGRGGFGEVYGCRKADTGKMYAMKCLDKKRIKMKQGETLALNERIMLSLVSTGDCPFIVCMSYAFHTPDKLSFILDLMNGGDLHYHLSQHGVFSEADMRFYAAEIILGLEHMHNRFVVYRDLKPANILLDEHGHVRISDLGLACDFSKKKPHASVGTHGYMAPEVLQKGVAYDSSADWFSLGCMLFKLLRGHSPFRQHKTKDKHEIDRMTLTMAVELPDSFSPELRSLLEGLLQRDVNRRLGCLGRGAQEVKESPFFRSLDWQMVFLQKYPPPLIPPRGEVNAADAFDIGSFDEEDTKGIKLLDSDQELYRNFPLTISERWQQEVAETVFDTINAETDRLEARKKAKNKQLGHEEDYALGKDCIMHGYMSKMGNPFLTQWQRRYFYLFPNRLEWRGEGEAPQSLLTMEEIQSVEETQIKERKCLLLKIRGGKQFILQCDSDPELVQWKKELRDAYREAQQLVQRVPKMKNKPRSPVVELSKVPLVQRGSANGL
PROCEDURE_TEXT: biochemical
pIC50: −log10 of the molar value.
Hi, to clarify the labels: Yes covers pIC50 from 8 upward, No covers anything below 8.

Some solved cases for reference:
COC(=O)C(c1cccc(OC)c1)n1cnc2ccc(-c3cn[nH]c3)cc2c1=O (stereo not drawn) [Compound 11] ... No
COc1cccc(Cn2cnc3c(F)cc(-c4cn[nH]c4)cc3c2=O)c1 [Compound 9] ... No

Below: the item to evaluate.
Is it the case that COc1cccc(Cn2cnc3ccc(-c4cn[nH]c4)c(C#N)c3c2=O)c1 [Compound 1] has pIC50 reaching or exceeding 8?
Yes

---

SYSTEM_TESTED: GRK2 (Homo sapiens, UniProt P25098)
PROCEDURE_TEXT: biochemical
APPLIED_CONDITIONS: GRK2 IC50 (μM), 10 nM GRK2; 10 uM ATP
ENDPOINT_LABEL: IC50 (µM)
Write the answer as a number in µM, unit excluded.

CC(c1cccc(OCCS(C)(=O)=O)c1)n1cnc2ccc(-c3cn[nH]c3)cc2c1=O (centres unmarked) [Compound 17] ... 1.31

Answer with the recorded IC50 of [2H]C([2H])(Oc1cccc([C@@H](C)n2cnc3ccc(-c4cn[nH]c4)cc3c2=O)c1)C(=O)O [Compound 26] only.
0.143

Complete the entry with IC50 for CCOc1cccc(C(CS(C)(=O)=O)n2cnc3ccc(-c4cn[nH]c4)cc3c2=O)c1 (centres unmarked) [Compound 15]
5.59

Return value of IC50 for input CC(c1cccc(C(=O)NC2CN(C)C2)c1)n1cnc2ccc(-c3cn[nH]c3)cc2c1=O (centres unmarked) [Compound 24] , no commentary.
0.096

Note IC50 for the molecule shown: O=c1c2cc(-c3cn[nH]c3)ccc2ncn1Cc1c(F)cccc1F [Compound 78]
0.801

Using known records, supply IC50 for O=c1c2cc(-c3cn[nH]c3)ccc2ncn1Cc1cccc(-c2ncco2)c1 [Compound 28]
0.446

---

SYSTEM_TESTED: UniProt:P25098
PROCEDURE_TEXT: biochemical
Procedure: hGRK2 LANCE Ultra In Vitro Assay G-protein coupled receptor kinases (GR Kinases) desensitize activated G-protein coupled receptors (GPCRs), by phosphorylation of cytoplasmic loops or carboxyl-terminal tails of GPCRs. GRK2 is one of the 6 different GR kinases and is implicated in heart failure and diabetes. This assay is sensitive and requires as low as 10 nM enzyme, in a total volume of 10 μL. […]
ENDPOINT_LABEL: pIC50
Please treat pIC50 as minus the base-10 logarithm of the molar concentration.

COc1cccc(C(C(=O)O)n2cnc3ccc(-c4cn[nH]c4)cc3c2=O)c1 (centres unmarked) ... 5.59
COc1cccc(Cn2cnc3cc(OC)c(-c4cn[nH]c4)cc3c2=O)c1 ... 7.80
COc1cccc(Cn2cnc3ccc(-c4cn[nH]c4)c(O)c3c2=O)c1 ... 8.05
CCOc1cccc(Cn2cnc3ccc(-c4cn[nH]c4)c(F)c3c2=O)c1 ... 7.54

API: the following record is the query input.
Give pIC50 for COc1cccc(Cn2c(C)nc3ccc(-c4ccnc(N)n4)cc3c2=O)c1
6.43

---

SYSTEM_TESTED: GRK2 (Homo sapiens, UniProt P25098)
PROCEDURE_TEXT: biochemical
APPLIED_CONDITIONS: GRK2 IC50 (μM), 10 nM GRK2; 10 uM ATP
ENDPOINT_LABEL: IC50 (µM)
Quick reminder: number only, in µM, skip the unit.

These solved cases illustrate the format of a correct answer.
O=C(O)COc1cccc(Cn2cnc3ccc(-c4cn[nH]c4)cc3c2=O)c1 [Compound 27] ... 0.088
COc1ccc(F)cc1Cn1cnc2ccc(-c3cn[nH]c3)cc2c1=O [Compound 40] ... 1.72
COc1cccc(C(CCO)n2cnc3ccc(-c4cn[nH]c4)cc3c2=O)c1 (centres unmarked) [Compound 32] ... 0.157

Name the recorded IC50 of the item COc1cccc(Cn2cnc3ccc(-c4c[nH]nc4C)cc3c2=O)c1 [Compound 37] in your answer.
0.066
